# tested system: human CLDN18.2 (human, UniProt P56856)
# procedure text: ELISA

binder	EC50 / nM
Ab6 (antibody, V domains shown) VH: QVQLVQSGAEVKKPGSSVKVSCKASGYAFSNYLIEWVKQAPGQGLEWIGLINPGSGGTNYNEKFKGKATITADKSTSTAYMELSSLRSEDTAVYYCARVYYGNSFAYWGQGTLVTVSS VL: DIVMTQSPDSLAVSLGERATISCKSSQSLLNSGNNKNYLAWYQQKPGQPPKLLIYWASTRESGVPDRFSGSGSGTDFTLTISSLQAEDVAVYYCQNDYFYPFTFGQGTKLEIK	0.22
Ab36 (antibody, V domains shown) VH: QVQLVQSGAEVKKPGSSVKVSCKASGYAFSNYLIEWVKQAPGQGLEWIGLINPGSGGTNYNEKFKGKATITADKSTSTAYMELSSLRSEDTAVYYCARVYYGNTFAYWGQGTLVTVSS VL: DIVMTQSPDSLAVSLGERATISCKSSQSLLNTGNNKNYLAWYQQKPGQPPKLLIYWASTRESGVPDRFSGSGSGTDFTLTISSLQAEDVAVYYCQNDYFYPFTFGQGTKLEIK	0.211
Ab35 (antibody, V domains shown) VH: QVQLVQSGAEVKKPGSSVKVSCKASGYAFSNYLIEWVKQAPGQGLEWIGLINPGSGGTNYNEKFKGKATITADKSTSTAYMELSSLRSEDTAVYYCARVYYGNTFAYWGQGTLVTVSS VL: DIVMTQSPDSLAVSLGERATISCKSSQSLLNTGNQKNYLTWYQQKPGQPPKLLIYWASTRESGVPDRFSGSGSGTDFTLTISSLQAEDVAVYYCQNDYFYPFTFGQGTKLEIK	62.1
Ab10 (antibody) chain 1: QVQLVQSGAEVKKPGSSVKVSCKASGYAFSNYLIEWVKQAPGQGLEWIGLINPGSGGTNYNEKFKGKATITADKSTSTAYMELSSLRSEDTAVYYCARVYYGNSFAYWGQGTLVTVSS chain 2: DIVMTQSPDSLAVSLGERATISCKSSQSLLNSGNQKNYLTWYQQKPGQPPKLLIYWASTRESGVPDRFSGSGSGTDFTLTISSLQAEDVAVYYCQNDYFYPFTFGQGTKLEIK	0.208
